In this section we review reported Plant response rating, Corn values for a set of compounds.
- System: corn
- TEST DETAILS: Test C pre-/postemergence herbicide test
- Format: in vivo, Zea mays
- CONDITION NOTES: Postemergence; 250 g ai/ha; scale 0 to 100 (0 no effect, 100 complete control)

| COMPOUND | Plant response rating, Corn |
| --- | --- |
| O=C1NCC(c2cccc(OC(F)F)c2)C1C(=O)Nc1cccc(F)c1F (stereo not shown) | 0 |
| O=C1NCC(c2cccc(OC(F)F)c2)C1C(=O)Nc1ccc(F)c(F)c1F (stereo not shown) | 35 |
| O=C1NCC(c2cc(F)cc(F)c2)C1C(=O)Nc1cccc(F)c1F (racemic) | 0 |
| O=C1NCC(c2ccc(C(F)(F)F)cc2)C1C(=O)Nc1ccc(F)c(F)c1F (stereo not shown) | 0 |
| O=C1NCC(c2cccc(Br)c2)C1C(=O)Nc1cccc(F)c1F (stereo not shown) | 20 |
| O=C1NCC(c2cc(F)c(F)c(F)c2)C1C(=O)Nc1ccccc1F (racemic) | 0 |
| O=C1NCC(c2cccc(OC(F)F)c2)C1C(=O)Nc1ccccc1F (stereo not shown) | 5 |

---

In this section we review reported Plant response rating, Oat, Wild values for a set of compounds.
- Test system: oat, wild
- TEST DETAILS: Test C pre-/postemergence herbicide test
- Assay type: in vivo, Avena fatua
- CONDITION NOTES: Preemergence, 125 g ai/ha; scale 0 to 100 (0 no effect, 100 complete control)

| COMPOUND | Plant response rating, Oat, Wild |
| --- | --- |
| O=C1NCC(c2ccccc2)C1C(=O)Nc1ccccc1F (racemic) | 0 |
| O=C1NCC(c2cccc(Br)c2)C1C(=O)Nc1ccccc1F (stereo not shown) | 0 |
| O=C1NCC(c2ccc(F)cc2)C1C(=O)Nc1ccccc1F (racemic) | 15 |
| O=C1NCC(c2cc(F)c(F)c(F)c2)C1C(=O)Nc1ccccc1C(F)(F)F (racemic) | 20 |

---

- Test system: giant foxtail
- TEST DETAILS: Test A pre-/postemergence herbicide test
- Format: in vivo, Setaria faberii
- CONDITION NOTES: Postemergence, 125 g ai/ha; visual rating on 0 to 100 scale (0 no effect, 100 complete control), approx. 10 days
REPORTED METRIC: Plant response rating, Foxtail, Giant

| COMPOUND | REPORTED METRIC | OBSERVED RESULT |
| --- | --- | --- |
| O=C1NCC(c2cccc(Br)c2)C1C(=O)Nc1cccc(F)c1F (stereo not drawn) | Plant response rating, Foxtail, Giant | 80 |
| O=C1NCC(c2cccc(I)c2)C1C(=O)Nc1ccccc1C(F)(F)F (stereo not drawn) | Plant response rating, Foxtail, Giant | 70 |
| O=C1NCC(c2cccc(Oc3ccccc3)c2)C1C(=O)Nc1ccccc1F (stereo not drawn) | Plant response rating, Foxtail, Giant | 80 |
| O=C1NCC(c2cccc(C(F)(F)F)c2)C1C(=O)Nc1cccc(Cl)c1F (stereo not drawn) | Plant response rating, Foxtail, Giant | 80 |
| O=C1NCC(c2cc3ccccc3s2)C1C(=O)Nc1cccc(F)c1F (stereo not drawn) | Plant response rating, Foxtail, Giant | 0 |
| O=C1NCC(c2cc3ccccc3s2)C1C(=O)Nc1ccccc1C(F)(F)F (stereo not drawn) | Plant response rating, Foxtail, Giant | 0 |

Where do the numbers come from? From patent US10294202B2.
